Values from ChEMBL document CHEMBL1157610

Experiment: Half life in mouse at 25 mg/kg, iv
Format: ADME, organism-based
Parameters: dose 25 mg/kg, route intravenous
Conditions: in vivo
measured property: half-life

{"item smiles": "CN(C)C1CCN(C(=O)c2ccc(NC(=O)Nc3ccc(-c4nc(N5CCOCC5)nc(N5CCOCC5)n4)cc3)cc2)CC1", "measured property": "half-life", "experimental value": "14.4 h"}

---

Test: AUC (0 to infinity) in mouse at 25 mg/kg, iv
Assay type: ADME, organism-based
Parameters: dose 25 mg/kg, route intravenous, time infinity
Details: plasma

{"compound": "CN(C)C1CCN(C(=O)c2ccc(NC(=O)Nc3ccc(-c4nc(N5CCOCC5)nc(N5CCOCC5)n4)cc3)cc2)CC1 [GEDATOLISIB]", "AUC(0-inf) / ng·h/mL": 57900}

---

Assay: Volume of distribution at steady state in mouse at 25 mg/kg, iv
Type: ADME, organism-based
Design: dose 25 mg/kg, route intravenous
Settings: in vivo, read-out: Vdss
measured property: Vd

{"compound": "CN(C)C1CCN(C(=O)c2ccc(NC(=O)Nc3ccc(-c4nc(N5CCOCC5)nc(N5CCOCC5)n4)cc3)cc2)CC1 [GEDATOLISIB]", "experimental value": "7.2 L/kg"}

---

Measured IC50 accompanies every entry in the list below.
Assay: cells
Conditions: Homo sapiens, PC3MM2
measured property: IC50 (nM)

{"item smiles": "CN1CCN(C(=O)c2ccc(NC(=O)Nc3ccc(-c4nc(N5CCOCC5)nc(N5CCOCC5)n4)cc3)cc2)CC1", "measured property": "IC50", "result unit": "nM", "experimental value": 13}
{"item smiles": "O=C(Nc1ccc(-c2nc(N3CCOCC3)nc(N3CCOCC3)n2)cc1)Nc1ccc(F)cc1F", "measured property": "IC50", "result unit": "nM", "experimental value": 5630}
{"item smiles": "O=C(Nc1ccc(F)cc1)Nc1ccc(-c2nc(N3CCOCC3)nc(N3CCOCC3)n2)cc1", "measured property": "IC50", "result unit": "nM", "experimental value": 193}
{"item smiles": "O=C(Nc1ccc(-c2nc(N3CCOCC3)nc(N3CCOCC3)n2)cc1)Nc1cccs1", "measured property": "IC50", "result unit": "nM", "experimental value": 218}
{"item smiles": "O=C(Nc1ccccc1)Nc1ccc(-c2nc(N3CCOCC3)nc(N3CCOCC3)n2)cc1", "measured property": "IC50", "result unit": "nM", "experimental value": 107}
{"item smiles": "O=C(Nc1ccc(CCO)cc1)Nc1ccc(-c2nc(N3CCOCC3)nc(N3CCOCC3)n2)cc1", "measured property": "IC50", "result unit": "nM", "experimental value": 39}
{"item smiles": "O=C(Nc1ccc(-c2nc(N3CCOCC3)nc(N3CCOCC3)n2)cc1)Nc1cccnc1", "measured property": "IC50", "result unit": "nM", "experimental value": 92}
{"item smiles": "O=C(Nc1ccc(-c2nc(N3CCOCC3)nc(N3CCOCC3)n2)cc1)Nc1ccnnc1", "measured property": "IC50", "result unit": "nM", "experimental value": 21}
{"item smiles": "O=C(Nc1ccncc1)Nc1ccc(-c2nc(N3CCOCC3)nc(N3CCOCC3)n2)cc1", "measured property": "IC50", "result unit": "nM", "experimental value": 43}
{"item smiles": "O=C(Nc1ccc(C(=O)O)cc1)Nc1ccc(-c2nc(N3CCOCC3)nc(N3CCOCC3)n2)cc1", "measured property": "IC50", "result unit": "nM", "experimental value": 28}

---

Test: Solubility at pH 7.4
Assay type: physicochemical
Conditions: buffer
Listing: solubility of selected molecules
measured property: solubility

{"molecule": "O=C(Nc1ccc(-c2nc(N3CCOCC3)nc(N3CCOCC3)n2)cc1)Nc1ccnnc1", "experimental value": "1 µg/mL"}
{"molecule": "O=C(Nc1ccc(Cl)cc1)Nc1ccc(-c2nc(N3CCOCC3)nc(N3CCOCC3)n2)cc1", "experimental value": "1 µg/mL"}
{"molecule": "O=C(Nc1ccc(-c2nc(N3CCOCC3)nc(N3CCOCC3)n2)cc1)Nc1ccc(F)cc1F", "experimental value": "1 µg/mL"}
{"molecule": "CN(C)CCNC(=O)c1ccc(NC(=O)Nc2ccc(-c3nc(N4CCOCC4)nc(N4CCOCC4)n3)cc2)cc1", "experimental value": "7 µg/mL"}
{"molecule": "COC(=O)c1ccc(NC(=O)Nc2ccc(-c3nc(N4CCOCC4)nc(N4CCOCC4)n3)cc2)cc1", "experimental value": "1 µg/mL"}
{"molecule": "O=C(Nc1ccc(-c2nc(N3CCOCC3)nc(N3CCOCC3)n2)cc1)NN1CCCCC1", "experimental value": "100 µg/mL"}
{"molecule": "O=C(Nc1ccc(C(=O)N2CCC(N3CCCCC3)CC2)cc1)Nc1ccc(-c2nc(N3CCOCC3)nc(N3CCOCC3)n2)cc1", "experimental value": "31 µg/mL"}
{"molecule": "O=C(Nc1ccc(C(=O)O)cc1)Nc1ccc(-c2nc(N3CCOCC3)nc(N3CCOCC3)n2)cc1", "experimental value": "52 µg/mL"}
{"molecule": "CCNC(=O)Nc1ccc(-c2nc(N3CCOCC3)nc(N3CCOCC3)n2)cc1", "experimental value": "1 µg/mL"}
{"molecule": "CN(C)C1CCN(C(=O)c2ccc(NC(=O)Nc3ccc(-c4nc(N5CCOCC5)nc(N5CCOCC5)n4)cc3)cc2)CC1 [GEDATOLISIB]", "experimental value": "14 µg/mL"}
{"molecule": "CNC(=O)c1ccc(NC(=O)Nc2ccc(-c3nc(N4CCOCC4)nc(N4CCOCC4)n3)cc2)cc1", "experimental value": "1 µg/mL"}
{"molecule": "O=C(Nc1ccc(C(=O)N2CCC(N3CCCC3)CC2)cc1)Nc1ccc(-c2nc(N3CCOCC3)nc(N3CCOCC3)n2)cc1", "experimental value": "33.5 µg/mL"}
{"molecule": "CN(C)CCN(C)C(=O)c1ccc(NC(=O)Nc2ccc(-c3nc(N4CCOCC4)nc(N4CCOCC4)n3)cc2)cc1.Cl", "experimental value": "9 µg/mL"}
{"molecule": "O=C(Nc1ccc(-c2nc(N3CCOCC3)nc(N3CCOCC3)n2)cc1)Nc1cccs1", "experimental value": "2 µg/mL"}

---

Assay: Last AUC in mouse at 25 mg/kg, iv
Assay type: ADME, organism-based
Parameters: dose 25 mg/kg, route intravenous
Conditions: in vivo

{"compound": "CN(C)C1CCN(C(=O)c2ccc(NC(=O)Nc3ccc(-c4nc(N5CCOCC5)nc(N5CCOCC5)n4)cc3)cc2)CC1 [GEDATOLISIB]", "result unit": "ng·h/mL", "AUC": 42600}

---

Assay: cells
Conditions: Homo sapiens, PC3MM2

{"item smiles": "O=C(Nc1ccc(CO)cc1)Nc1ccc(-c2nc(N3CCOCC3)nc(N3CCOCC3)n2)cc1", "result unit": "nM", "IC50": 30}
{"item smiles": "CNC(=O)c1ccc(NC(=O)Nc2ccc(-c3nc(N4CCOCC4)nc(N4CCOCC4)n3)cc2)cc1", "result unit": "nM", "IC50": 24}
{"item smiles": "CN(C)CCNC(=O)c1ccc(NC(=O)Nc2ccc(-c3nc(N4CCOCC4)nc(N4CCOCC4)n3)cc2)cc1", "result unit": "nM", "IC50": 11}
{"item smiles": "O=C(Nc1ccc(Cl)cc1)Nc1ccc(-c2nc(N3CCOCC3)nc(N3CCOCC3)n2)cc1", "result unit": "nM", "IC50": 293}
{"item smiles": "COC(=O)c1ccc(NC(=O)Nc2ccc(-c3nc(N4CCOCC4)nc(N4CCOCC4)n3)cc2)cc1", "result unit": "nM", "IC50": 45}

---

Experiment: Membrane permeability at pH 7.4 by PAMPA assay
Type: ADME
Conditions: read-out: permeability
The compounds listed here are annotated with their Papp.

{"item smiles": "O=C(Nc1ccc(CO)cc1)Nc1ccc(-c2nc(N3CCOCC3)nc(N3CCOCC3)n2)cc1", "Papp / ×10⁻⁶ cm/s": 0.2}
{"item smiles": "CN(C)CCNC(=O)c1ccc(NC(=O)Nc2ccc(-c3nc(N4CCOCC4)nc(N4CCOCC4)n3)cc2)cc1", "Papp / ×10⁻⁶ cm/s": 0.1}
{"item smiles": "O=C(Nc1ccc(F)cc1)Nc1ccc(-c2nc(N3CCOCC3)nc(N3CCOCC3)n2)cc1", "Papp / ×10⁻⁶ cm/s": 1}
{"item smiles": "O=C(Nc1ccccc1)Nc1ccc(-c2nc(N3CCOCC3)nc(N3CCOCC3)n2)cc1", "Papp / ×10⁻⁶ cm/s": 0.2}
{"item smiles": "O=C(Nc1ccc(-c2nc(N3CCOCC3)nc(N3CCOCC3)n2)cc1)Nc1cccnc1", "Papp / ×10⁻⁶ cm/s": 0.5}
{"item smiles": "Cc1ccc(NC(=O)Nc2ccc(-c3nc(N4CCOCC4)nc(N4CCOCC4)n3)cc2)cc1", "Papp / ×10⁻⁶ cm/s": 5.6}
{"item smiles": "O=C(Nc1ccncc1)Nc1ccc(-c2nc(N3CCOCC3)nc(N3CCOCC3)n2)cc1", "Papp / ×10⁻⁶ cm/s": 1.4}
{"item smiles": "COC(=O)c1ccc(NC(=O)Nc2ccc(-c3nc(N4CCOCC4)nc(N4CCOCC4)n3)cc2)cc1", "Papp / ×10⁻⁶ cm/s": 0.6}
